B1: Poly(rC)-binding protein 1, residues 278 to 350; numbered along this chain, Q15365 (parent)
chain: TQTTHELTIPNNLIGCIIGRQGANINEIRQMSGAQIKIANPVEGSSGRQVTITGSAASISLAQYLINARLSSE

# Variants of: B1
# experiment: abundance fitness (aPCA) (normalised: wild type 0, dead -1); higher = more abundant; growth selection in yeast, the domain comes from the species named
# test_conditions: Homo sapiens
I'd appreciate it if you could supply abundance fitness values for the items below.
Write the value as a bare number.

Item H5R has what recorded abundance fitness?
0.091

Given A39P , state its recorded abundance fitness.
-0.428

Name the reported abundance fitness value associated with the variant N67P
-0.782

Requested field: abundance fitness. Item: P41Q
0.049

Which value of abundance fitness has been reported for L7A in the records?
-0.504

Record request: abundance fitness value, item P10W
-0.915

Look at this variant and give its reported abundance fitness. T53V
-0.118

abundance fitness lookup needed for I9H , thanks.
-0.039

Returns the measured abundance fitness for the input variant. Input: V50L
-0.069

Quick one: abundance fitness for T51M ?
-0.066

What value of abundance fitness has been recorded for this entry: N24D
-0.003

For the variant S58N , what abundance fitness is on record?
0.009

Query (variant): S71T ; field requested: abundance fitness
-0.092

Requested read-out: abundance fitness. Entry: I9A
-0.688

What value of measured abundance fitness is listed for Q49P ?
-0.298

Item under review: R29H . Reported abundance fitness?
-0.225

What measured abundance fitness goes with C16D ?
-0.063

Query (variant): H5F ; field requested: abundance fitness
-0.32

Which measured abundance fitness value corresponds to H5D ?
-0.323

# lookup: abundance fitness of I38M
-0.333

Data request, read-out abundance fitness, for P41T
-0.081

Name the recorded abundance fitness for T53A .
-0.126

Data provenance: the Human Domainome abundance scans (Beltran et al. 2025)
